Measured A450, listed per entry for reference.
- ASSAYED_SYSTEM: T1, Mouse Id3: Histidine (mouse, UniProt P41133 1-119)
- T1 construct: Fusion protein made in E. coli from vector pGW07; also called m-Id3: His; Mouse Id3 (coated wells); not shown: His tag
- T1 sequence: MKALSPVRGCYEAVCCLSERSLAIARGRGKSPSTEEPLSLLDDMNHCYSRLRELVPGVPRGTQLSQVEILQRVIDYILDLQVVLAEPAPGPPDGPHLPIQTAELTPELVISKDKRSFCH
- RUN_DESCRIPTION: ELISA, Ab 0.050 µg/ml
- Method: The rabbit monoclonal anti-human Id3 (clone #3-3) and the rabbit monoclonal anti-mouse/human Id3 (clones #6-1, 16-1, 17-3, and 42-1) produced in Example 6 were tested reactivity against the following antigens: mouse Id1:His, human Id1:His, mouse Id2:His, human Id2:His, mouse Id3:His, human Id3:His, mouse Id4:His, human Id4:His and GST. 1. […]
Record the result as a number with its unit.

What the record says about rabbit monoclonal anti-mouse/human Id3, clone #BCH-4/#6-1 (antibody, V domains shown, Rabbit IgG from a rabbit hybridoma; also called m/h Id3 MoAb 6-1) VH: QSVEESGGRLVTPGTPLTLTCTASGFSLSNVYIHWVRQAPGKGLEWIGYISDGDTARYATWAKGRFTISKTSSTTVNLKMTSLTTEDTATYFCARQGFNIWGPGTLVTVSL VL: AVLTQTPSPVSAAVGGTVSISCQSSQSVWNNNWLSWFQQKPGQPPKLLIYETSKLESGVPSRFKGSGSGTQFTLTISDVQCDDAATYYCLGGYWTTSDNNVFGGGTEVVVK : A450 is 1.75 A450

What the record says about rabbit monoclonal anti-mouse/human Id3, clone #BCH-4/#17-3 (antibody, V domains shown, Rabbit IgG from a rabbit hybridoma; also called m/h Id3 MoAb 17-3; BCH-3/#17-3) VH: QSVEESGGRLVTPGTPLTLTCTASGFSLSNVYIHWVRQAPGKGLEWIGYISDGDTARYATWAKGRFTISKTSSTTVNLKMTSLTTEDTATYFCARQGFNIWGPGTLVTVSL VL: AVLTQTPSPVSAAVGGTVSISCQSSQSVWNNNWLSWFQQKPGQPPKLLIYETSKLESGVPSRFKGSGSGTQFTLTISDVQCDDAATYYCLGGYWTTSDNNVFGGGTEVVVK : A450 is 2.19 A450

What the record says about rabbit monoclonal anti-mouse/human Id3, clone #BCH-4/#42-1 (antibody, V domains shown, Rabbit IgG from a rabbit hybridoma; also called m/h Id3 MoAb 42-1) VH: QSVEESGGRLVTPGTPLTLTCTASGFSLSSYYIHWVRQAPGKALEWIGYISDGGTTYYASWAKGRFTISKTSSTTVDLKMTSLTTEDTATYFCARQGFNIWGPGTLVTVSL VL: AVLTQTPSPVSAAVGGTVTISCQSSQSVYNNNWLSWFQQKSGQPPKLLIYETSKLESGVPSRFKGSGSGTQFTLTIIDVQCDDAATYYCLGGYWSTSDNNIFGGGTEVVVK : A450 is 2.23 A450

The measured values listed here are drawn from patent US20070178531A1.
